Molecular target: human GPR120 (Homo sapiens (Human), UniProt Q5NUL3)
Sequence (Q5NUL3 whole entry): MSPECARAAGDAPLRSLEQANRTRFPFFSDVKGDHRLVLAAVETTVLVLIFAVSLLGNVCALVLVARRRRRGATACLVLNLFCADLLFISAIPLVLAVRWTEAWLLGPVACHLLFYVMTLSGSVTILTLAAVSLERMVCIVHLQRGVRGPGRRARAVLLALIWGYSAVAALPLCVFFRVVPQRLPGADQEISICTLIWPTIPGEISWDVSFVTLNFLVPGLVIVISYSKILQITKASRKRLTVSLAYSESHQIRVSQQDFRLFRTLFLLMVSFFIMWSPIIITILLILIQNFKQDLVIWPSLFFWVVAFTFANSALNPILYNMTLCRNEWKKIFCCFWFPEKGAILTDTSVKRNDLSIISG
Assay: GPR120 pERK AlphaScreen SureFire Assay (human)
Details: CHO cells stably transfected with short form of human GPR120
Classify: Y when EC50 is strictly less than 900 nM; N when EC50 is not.

Please check: EC50 for O=C(O)COCCC[C@H]1C[C@@H](OCc2cccc(Oc3ccccc3)c2)C1 [Example 59] , strictly under 900 nM or not?
Y

# check: EC50 < 900 nM for O=C(O)CO[C@H]1C[C@@H](c2ccc(-c3cccc(C(=O)c4ccccc4)c3)cc2)C1 [Example 14]
Y

hey, is EC50 for CC(C)Oc1ccc(F)c(-c2ccc(C[C@H]3C[C@H](CC(=O)O)C3)cc2)c1 [Example 52] lower than 900 nM or not?
N

Decide: EC50 of O=C(O)CO[C@H]1C[C@@H](c2ccc(-c3cc(OC4CCCCC4)ccc3F)cc2)C1 [Example 33] strictly below 900 nM?
Y

hey, is EC50 for Cc1ccc(Oc2cc(F)c(F)c(-c3ccc([C@H]4C[C@@H](OCC(=O)O)C4)cc3)c2)cc1 [Example 38] lower than 900 nM or not?
Y

Lab log: compare recorded EC50 with 900 nM; is it strictly lower for COC1(c2cccc(Oc3ccccc3)c2)CC(CCCOCC(=O)O)C1 (centres unmarked) [Example 68] ?
N

Does this molecule meet the criterion EC50 < 900 nM? O=C(O)[C@H]1C[C@@H]1COCC1CC(c2cccc(Oc3ccccc3)c2)C1 (relative stereo) [Example 63]
N

Quick check: does CC1(C)Cc2cc(Cl)cc(-c3ccc([C@H]4C[C@@H](OCC(=O)O)C4)cc3)c2O1 [Example 24] have EC50 under 900 nM?
N
